target: activated protein C (APC) (Homo sapiens)
Sequence (P04070 212-461 limits assumed): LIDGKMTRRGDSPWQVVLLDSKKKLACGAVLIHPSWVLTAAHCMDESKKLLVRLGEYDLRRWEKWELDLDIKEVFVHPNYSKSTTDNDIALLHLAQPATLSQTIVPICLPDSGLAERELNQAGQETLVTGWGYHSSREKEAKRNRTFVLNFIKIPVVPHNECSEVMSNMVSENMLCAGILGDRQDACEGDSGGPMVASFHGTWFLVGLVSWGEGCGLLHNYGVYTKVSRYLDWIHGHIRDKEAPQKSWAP
Sequence (P04070 43-197 limits assumed): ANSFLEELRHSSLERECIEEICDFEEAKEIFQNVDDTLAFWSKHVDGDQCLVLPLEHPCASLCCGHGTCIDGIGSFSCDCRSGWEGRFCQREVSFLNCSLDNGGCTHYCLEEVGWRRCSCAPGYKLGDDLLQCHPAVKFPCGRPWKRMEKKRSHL
assay.comment: Fluorogenic enzyme assay (Example 5)
Type: biochemical
run.parameters: enzyme 100 nM, substrate 1 μM
Reported Time (min) for 10% hydrolysis, APC values are given for each entry in this list.
Value expressed in min; do not type the unit.

Br.CC(C)CNS(=O)(=O)c1cccc2cc(NC(=O)[C@H](CCCNC(=N)N)NC(=O)OCc3ccccc3)ccc12 [(N^α -Z)ArgANSNR1 R2; H; i-C4 H9]    17
Br.CCCCCNS(=O)(=O)c1cccc2cc(NC(=O)[C@H](CCCNC(=N)N)NC(=O)OCc3ccccc3)ccc12 [(N^α -Z)ArgANSNR1 R2; H; C5 H11]    12
Br.N=C(N)NCCC[C@H](NC(=O)OCc1ccccc1)C(=O)Nc1ccc2c(S(=O)(=O)N3CCCCCC3)cccc2c1 [(N^α -Z)ArgANSNR1 R2; (CH2)6]    813

Data request: I have this molecule here, Br.CN(C)S(=O)(=O)c1cccc2cc(NC(=O)[C@H](CCCNC(=N)N)NC(=O)OCc3ccccc3)ccc12 [(N^α -Z)ArgANSNR1 R2; CH3; CH3] , and I need its recorded Time (min) for 10% hydrolysis, APC.
Data returned: 200

Data request: I have this molecule here, Br.CNS(=O)(=O)c1cccc2cc(NC(=O)[C@H](CCCNC(=N)N)NC(=O)OCc3ccccc3)ccc12 [(N^α -Z)ArgANSNR1 R2; H; CH3] , and I need its recorded Time (min) for 10% hydrolysis, APC.
Data returned: 120

Data request: I have this molecule here, Br.CC(C)NS(=O)(=O)c1cccc2cc(NC(=O)[C@H](CCCNC(=N)N)NC(=O)OCc3ccccc3)ccc12 [(N^α -Z)ArgANSNR1 R2; H; i-C3 H7] , and I need its recorded Time (min) for 10% hydrolysis, APC.
Data returned: 50
